experiment-notes: Inhibition towards diaminopimelate (DAP) epimerase was determined
measure-name: IC50 (µM)
Numbers only, in µM.

* N[C@H](C(=O)O)[C@H](F)CC[C@H](N)C(=O)O | 10
* N[C@@H](CC[C@H](F)[C@@H](N)C(=O)O)C(=O)O | 8
* N[C@H](C(=O)O)[C@@H](F)CC[C@H](N)C(=O)O | 4

[ask] Record request: IC50 value, item N[C@@H](CC[C@@H](F)[C@@H](N)C(=O)O)C(=O)O
[reply] 25

---

experiment-notes: Inhibition towards diaminopimelate (DAP) epimerase was determined and expressed as KI
measure-name: Ki (µM)
Numbers only, in µM.

[ask] Could you share which Ki value was measured for NC(CCCC(NO)C(=O)O)C(=O)O (stereo unspecified) ?
[reply] 5.6

---

test-target: Glutamate racemase (Lactobacillus fermentum)
Sequence (Q03469 whole entry): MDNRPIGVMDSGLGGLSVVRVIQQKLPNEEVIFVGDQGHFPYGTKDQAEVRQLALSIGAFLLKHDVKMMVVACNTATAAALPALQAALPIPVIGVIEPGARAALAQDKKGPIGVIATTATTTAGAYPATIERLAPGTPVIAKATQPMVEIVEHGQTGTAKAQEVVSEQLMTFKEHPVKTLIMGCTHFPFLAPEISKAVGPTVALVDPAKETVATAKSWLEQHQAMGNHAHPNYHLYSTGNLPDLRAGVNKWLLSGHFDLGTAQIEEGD
experiment-notes: Inhibition towards glutamate racemase was determined and expressed as KI
Parameters: species or system Limosilactobacillus fermentum
measure-name: Ki (µM)
Numbers only, in µM.

[ask] Report Ki for N[C@H](CCC(=O)O)C(=O)O [D-GLUTAMATE] tested on Glutamate racemase (Lactobacillus fermentum).
[reply] 190

Values compiled from ChEMBL document CHEMBL1150481.
